test system: NCI-H211 tumor spheroids, viability percent test/control; assay: Anticancer human tumor NCI-H211 cell line growth inhibition; conditions: second compound 31.6 µM; first compound 1 µM; hits give low values; spheroids with HUVEC and MSC;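 also: spheroids exposed to agents for seven days before readout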
API: label(entry) gives Yes if the entry's viability, T/C is strictly smaller than 30%; on equality or larger values it gives No.

Record CC1COCCN1c1cc(-c2ccnn2C)c2ccnc(-c3ccn[nH]3)c2n1 (stereo unspecified) + Cn1nnc2c(C(N)=O)ncn2c1=O : is its viability, T/C strictly below 30%?
Yes

Please check: viability, T/C for [2H]c1nc(C)nc([2H])c1-c1cc(NC[C@@H](C)c2cccc3c(C(=O)NC)ccnc23)ncn1 + Cn1nnc2c(C(N)=O)ncn2c1=O , strictly under 30% or not?
No

I wonder whether Cc1cc(C)c(CNC(=O)c2cc(-c3ccc(CN4CCOCC4)cc3)cc3c2cnn3C2CCCC2)c(=O)[nH]1 + Cn1nnc2c(C(N)=O)ncn2c1=O has viability, T/C below 30%. Can you tell?
No

Hi there! Is viability, T/C for CC(C)n1c(=O)n(C)c2cnc3cc(F)c(-c4ccc(OCCCN5CCCCC5)nc4)cc3c21 + Cn1nnc2c(C(N)=O)ncn2c1=O below 30%, do you know?
Yes

Given COc1ccc([C@@H](O)c2cc(-c3ncnc4cc(N5CCOCC5)ccc34)c(F)cc2Cl)nn1 + Cn1nnc2c(C(N)=O)ncn2c1=O , is recorded viability, T/C strictly lower than 30%?
No

Below 30% on viability, T/C? Entry COc1cc(C)[nH]c(=O)c1CN1CCc2c(Cl)cc(C(OC)C3COC3)c(Cl)c2C1=O (stereo unspecified) + Cn1nnc2c(C(N)=O)ncn2c1=O
No
